System: CCRIS mutagenicity, Ames/micronucleus/aberration tests
Experiment: CCRIS mutagenicity studies
Conditions: Test System: AMES SALMONELLA TYPHIMURIUM; Strain/Indicator: TA1537; Metabolic Activation: HAMSTER, LIVER, S-9, AROCLOR 1254; Method: STANDARD PLATE
Activity calls are given as the source filed them. The rule behind the calls is not given here.
Classes used: t (active), f (inactive)

- COMPOUND: "N#CCCN"
  ANSWER LABEL: "f"
- COMPOUND: "CC(=O)CC(=O)CCC(=O)O"
  ANSWER LABEL: "f"
- COMPOUND: "Cn1c(-c2ccccc2)c(N=Nc2scc[n+]2C)c2ccccc21"
  ANSWER LABEL: "t"
- COMPOUND: "CCCCC(CC)COP(=O)(OCC(CC)CCCC)OCC(CC)CCCC (stereo not given)"
  ANSWER LABEL: "f"
- COMPOUND: "CC(=O)O[C@@H]1[C@@H](O)[C@H](O[C@H]2[C@H](OC(=O)[C@H]3CC[C@@H]4[C@H](C3)O[C@@]3(C[C@H](OC(=O)/C=C/c5ccccc5)[C@H](C)CO3)[C@]43CO3)O[C@H](C)[C@@H](O)[C@@H]2OC(C)=O)O[C@H](C)[C@H]1O"
  ANSWER LABEL: "f"
- COMPOUND: "N#CCCNCCC#N"
  ANSWER LABEL: "f"
- COMPOUND: "CCO[Si](OCC)(OCC)OCC"
  ANSWER LABEL: "f"
- COMPOUND: "COc1cc([C@@H]2c3cc4c(cc3[C@H](O)[C@H]3COC(=O)[C@H]23)OCO4)cc(OC)c1OC"
  ANSWER LABEL: "f"
- COMPOUND: "CC[C@H](C)[C@@H]([C@@H](CC(=O)N1CCC[C@H]1[C@H](OC)[C@@H](C)C(=O)N[C@@H](Cc1ccccc1)c1nccs1)OC)N(C)C(=O)[C@@H](NC(=O)[C@H](C(C)C)N(C)C)C(C)C"
  ANSWER LABEL: "f"
- COMPOUND: "O=c1c(O)c(O)c1=O"
  ANSWER LABEL: "f"

====

Test system: CCRIS mutagenicity, Ames/micronucleus/aberration tests
Test: CCRIS mutagenicity studies
Conditions: Test System: AMES SALMONELLA TYPHIMURIUM; Strain/Indicator: TA97A; Metabolic Activation: NONE; Method: STANDARD PLATE
Active and inactive are the calls of the source. How the calls were made is not given here.
Classes used: active, inactive

- COMPOUND: "CCN(CC)C(=O)/C(Cl)=C(\\C)OP(=O)(OC)OC"
  ANSWER LABEL: "inactive"
- COMPOUND: "Cc1ccc(C)c(C)c1"
  ANSWER LABEL: "inactive"
- COMPOUND: "COc1cccc2c1C(=O)c1c(O)c3c(c(O)c1C2=O)C[C@@](O)(C(=O)CO)C[C@@H]3O[C@H]1C[C@H](N)[C@H](O)[C@H](C)O1"
  ANSWER LABEL: "inactive"
- COMPOUND: "C(CCC1CO1)CC1CO1 (stereo not given)"
  ANSWER LABEL: "active"
- COMPOUND: "COC(=O)Nc1nc2ccccc2[nH]1"
  ANSWER LABEL: "inactive"
- COMPOUND: "NCCc1c[nH]c2ccc(O)cc12 (tested in a mixture with another compound)"
  ANSWER LABEL: "inactive"
- COMPOUND: "C=C(C)C(=O)OCCOCCOCCOC(=O)C(=C)C"
  ANSWER LABEL: "inactive"
- COMPOUND: "C[C@]1(O)CC[C@H]2[C@@H]3CCC4=CC(=O)CC[C@]4(C)[C@@]3(F)[C@@H](O)C[C@@]21C"
  ANSWER LABEL: "inactive"
- COMPOUND: "COc1ccc2nc3cc(Cl)ccc3c(NCCCNCCCl)c2c1"
  ANSWER LABEL: "active"
- COMPOUND: "N=C1C=CC(=C(c2ccc(N)cc2)c2ccc(N)cc2)C=C1"
  ANSWER LABEL: "inactive"
- COMPOUND: "CC(C)=CCC/C(C)=C/C=O"
  ANSWER LABEL: "inactive"
- COMPOUND: "CCOCC=O"
  ANSWER LABEL: "inactive"
- COMPOUND: "C=C(C)C(=O)OCCO"
  ANSWER LABEL: "inactive"
- COMPOUND: "CCOP(=S)(OCC)SCSCC"
  ANSWER LABEL: "inactive"
- COMPOUND: "CCN(CC)CCCC(C)Nc1ccnc2cc(Cl)ccc12 (stereo not given)"
  ANSWER LABEL: "inactive"
- COMPOUND: "CCSCCSP(=S)(OC)OC"
  ANSWER LABEL: "inactive"
- COMPOUND: "BrCc1ccc(Br)cc1"
  ANSWER LABEL: "inactive"
- COMPOUND: "O=C1[C@H]2CC=CC[C@H]2C(=O)N1SC(Cl)(Cl)Cl"
  ANSWER LABEL: "active"
- COMPOUND: "O=Nn1cc(CCO)c2ccccc21"
  ANSWER LABEL: "active"
- COMPOUND: "O=c1c(O)c(-c2ccc(O)c(O)c2)oc2cc(O)cc(O)c12"
  ANSWER LABEL: "active"

These data points were gathered from PubChem BioAssay AID1259407.
